// values below are reported pEC50
system: Raji (Burkitt's) lymphoma cells; assay: MTT assay for 4-day viability of Raji (Burkitt's) lymphoma cells; type: cell-based; settings: Homo sapiens, 96 h, Raji (Burkitt's) lymphoma cells highly expressing MCT1, estimated EC50 given as bin, read-out: approximate potency (EC50)
pEC50: −log10 of the molar value.

Some solved cases for reference:
Compound | pEC50
CC(C)c1cc(=O)c2c(CCCCO)cc(OCc3cccc4ccccc34)cc2o1 [Example 36] | 5.00 to 6.00
O=c1cc(-c2ccccc2)oc2cc(Oc3ccnc4ccccc34)cc(OCCCO)c12 [Example 26] | 5.00 to 6.00

Which pEC50 value is on record for CC(C)c1cc(=O)c2c(OCc3ccccc3CO)cc(Oc3ccnc4ccccc34)cc2o1 [Example 9] ?
≥ 7.00

Moving on to the next compound: CC(C)c1cc(=O)c2c(OCCCCO)cc(COc3cccc4ccccc34)cc2o1 [Example 35]
5.00 to 6.00

Moving on to the next compound: Cc1cc(=O)c2c(OCC(O)CO)cc(Oc3ccnc4ccccc34)cc2o1 (centres unmarked) [Example 4]
≤ 5.00

Moving on to the next compound: CC(C)c1cc(=O)c2c(OCc3ccccc3CO)cc(OCc3cccc(C(F)(F)F)c3)cc2o1 [Example 12]
≥ 7.00

Moving on to the next compound: CC(C)c1cc(=O)c2c(N3CCC(CO)CC3)cc(OCc3cccc4ccccc34)cc2o1 [Example 50]
5.00 to 6.00

Origin of values: patent US9994555B2
